From: ChEMBL document CHEMBL1142481

Below are Ki values recorded for UniProtKB P28221.
Sequence (P28221 whole entry): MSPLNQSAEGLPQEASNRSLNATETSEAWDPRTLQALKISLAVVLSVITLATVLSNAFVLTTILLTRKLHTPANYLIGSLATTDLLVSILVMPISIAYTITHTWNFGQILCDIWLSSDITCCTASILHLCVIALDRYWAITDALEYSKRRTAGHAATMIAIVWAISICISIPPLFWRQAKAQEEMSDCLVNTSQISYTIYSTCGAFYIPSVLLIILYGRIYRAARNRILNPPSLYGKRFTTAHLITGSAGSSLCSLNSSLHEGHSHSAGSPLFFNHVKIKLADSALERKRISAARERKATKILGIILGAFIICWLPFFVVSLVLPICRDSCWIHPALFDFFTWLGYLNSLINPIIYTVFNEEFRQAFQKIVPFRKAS
READOUT_TYPE: Ki (nM)

Cc1ccc2c(OCC(C)N3CCC(Cc4ccc5c(c4)NC(=O)CO5)CC3)cccc2n1 (single isomer, unassigned; enantiomer II) ... 501
Cc1ccc2c(OCC3CCN(CC(=O)c4ccc5c(c4)NC(=O)CO5)CC3)cccc2n1 ... 251
Cc1ccc2c(OC(C)CN3CCC(Cc4ccc5c(c4)NC(=O)CO5)CC3)cccc2n1 (racemic) ... 79.4
Cc1ccc2c(OC3CCN(CC(=O)c4ccc5c(c4)NC(=O)CO5)CC3)cccc2n1 ... 2000

* * *

# SUBJECT_OF_TEST: 5-hydroxytryptamine receptor 1B (Homo sapiens, UniProt P28222)
# Sequence (P28222 whole entry): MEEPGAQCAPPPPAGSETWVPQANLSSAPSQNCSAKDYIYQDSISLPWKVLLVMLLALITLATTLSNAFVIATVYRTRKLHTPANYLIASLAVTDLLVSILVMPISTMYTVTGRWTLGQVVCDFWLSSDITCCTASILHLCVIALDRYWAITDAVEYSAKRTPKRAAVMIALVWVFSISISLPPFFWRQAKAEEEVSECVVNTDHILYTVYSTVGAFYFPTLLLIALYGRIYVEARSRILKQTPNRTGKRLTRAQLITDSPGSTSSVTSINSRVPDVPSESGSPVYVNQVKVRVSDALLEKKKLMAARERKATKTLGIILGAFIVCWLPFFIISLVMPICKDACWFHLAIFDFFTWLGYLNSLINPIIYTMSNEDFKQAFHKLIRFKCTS
# METHOD: Displacement of [3H]5HT from human cloned 5HT1B receptor expressed in CHO cells
# Assay type: cell-based
pKi: −log10 of the molar value.
Known pKi of a selection of compounds
READOUT_TYPE: pKi

Cc1ccc2c(OCC3CCN(CC(=O)c4ccc5c(c4)NC(=O)CO5)CC3)cccc2n1 ... 6.20
Cc1ccc2c(OCCCN3CC(COc4ccc5c(c4)NC(=O)CO5)C3)cccc2n1 ... 6.50
Cc1ccc2c(OC3CCN(CCc4ccc5c(c4)NC(=O)CO5)CC3)cccc2n1 ... 7.60
